Give Population Pyknosed Nuclei (%) for every item shown.
- Tested on: HEK-293T
- run description: Multiplex assay against HEK293T
- Assay type: toxicity, cell-based
- stated conditions: human, 24 h, 10 µM, compound concentration 10 uM, replicate 1
One number for each entry, in %.

Example entries begin here.
Identify measured Population Pyknosed Nuclei (%) associated with `Cn1cc(C(=O)OCC2CCN(CCNS(C)(=O)=O)CC2)c2ccccc21`
13

Identify measured Population Pyknosed Nuclei (%) associated with `Cc1cc(-c2ccc3c(c2)CC[C@H]3N2CC3(CCN(C(=O)Cc4cn5cc(C)sc5n4)CC3)C2)ncn1`
14

Identify measured Population Pyknosed Nuclei (%) associated with `CC(C)(C)c1ccc(CSc2cnn(C(C)(C)C)c(=O)c2Cl)cc1`
12

Identify measured Population Pyknosed Nuclei (%) associated with `O=c1nc2[nH]c3ccccc3nc-2c(=O)[nH]1`
12

// each listed compound needs a value for Population Pyknosed Nuclei (%)
1. COCCCN1CCC(NC(=O)c2cc(Cl)c(N)c3c2OCC3)CC1 [PRUCALOPRIDE]
2. C=CCN1C[C@H](C(=O)N(CCCN(C)C)C(=O)NCC)C[C@@H]2c3cccc4[nH]cc(c34)C[C@H]21
3. Cc1c(Cc2ccc3ccccc3n2)c2cc(F)ccc2n1CC(=O)O
4. COc1ccc2c(c1OCc1ccccc1)C[C@@H](C(=O)O)N(C(=O)C(c1ccccc1)c1ccccc1)C2
5. COc1c(Nc2ccc(S(C)(=O)=O)nc2C)ncnc1OC1CCN(C(=O)OC(C)C)CC1
6. CCCCCCNC(=O)Nc1ccc(S(=O)(=O)Nc2ccc(CCNC[C@H](O)COc3ccc(O)cc3)cc2)cc1
7. C[C@@H]1CC(=O)Nc2cccc(-c3ccc4c(c3)c(-c3cnn(C)c3)nn4C)c2N1
8. CN(C)C(=O)Cn1cc(-c2ccc(-c3nnc4ccccn34)cc2)cn1

1: 13; 2: 11; 3: 13; 4: 13; 5: 15; 6: 11; 7: 13; 8: 13

// each listed compound needs a value for Population Pyknosed Nuclei (%)
1. CSc1nc(NC2CCCC2)c([N+](=O)[O-])c(NC2CCCC2)n1
2. Cc1ccc(OCC(O)C(C)NC(C)C)c2c1CCC2.Cl (stereo not drawn)
3. Cl.Cl.OCCOCCN1CCN(C(c2ccccc2)c2ccc(Cl)cc2)CC1 (stereo not drawn) [HYDROXYZINE HYDROCHLORIDE]
4. N[C@](CC1c2ccccc2Oc2ccccc21)(C(=O)O)[C@H]1C[C@@H]1C(=O)O
5. Nc1nc(CC(=O)Nc2ccc(CCNC[C@H](O)c3ccccc3)cc2)cs1
6. COc1cc(Nc2ncc3c(n2)-c2ccc(Cl)cc2C(c2c(F)cccc2OC)=NC3)ccc1C(=O)O

[10, 17, 15, 10, 13, 16]

----------
Give Population Membrane Permeable-Phenotype (%) for every item shown.
- System: HEK-293T
- run description: Multiplex assay against HEK293T
- Format: toxicity, cell-based
- stated conditions: human, 24 h, 10 µM, compound concentration 10 uM, replicate 1
Numbers only, in %.

Identify measured Population Membrane Permeable-Phenotype (%) associated with `OCCCNc1cc(-c2ccnc(Nc3cccc(Cl)c3)n2)ccn1`
0

Identify measured Population Membrane Permeable-Phenotype (%) associated with CN1C[C@H](C(=O)N[C@]2(C)O[C@@]3(O)[C@@H]4CCCN4C(=O)[C@H](Cc4ccccc4)N3C2=O)C[C@@H]2c3cccc4[nH]cc(c34)C[C@H]21.CS(=O)(=O)O [DIHYDROERGOTAMINE MESYLATE]
0

Identify measured Population Membrane Permeable-Phenotype (%) associated with `CSc1nc(NC2CCCC2)c([N+](=O)[O-])c(NC2CCCC2)n1`
1

Identify measured Population Membrane Permeable-Phenotype (%) associated with COCCCN1CCC(NC(=O)c2cc(Cl)c(N)c3c2OCC3)CC1 [PRUCALOPRIDE]
0

Identify measured Population Membrane Permeable-Phenotype (%) associated with `N[C@](CC1c2ccccc2Oc2ccccc21)(C(=O)O)[C@H]1C[C@@H]1C(=O)O`
0

Identify measured Population Membrane Permeable-Phenotype (%) associated with `COc1cc(Nc2ncc3c(n2)-c2ccc(Cl)cc2C(c2c(F)cccc2OC)=NC3)ccc1C(=O)O`
0

// each listed compound needs a value for Population Membrane Permeable-Phenotype (%)
1. O=C(O)CCC/C=C\CC1C(O)CC(O)C1/C=C/C(O)COc1cccc(Cl)c1 (stereo not drawn)
2. CCc1nn2c(C)cc(C)nc2c1Cc1ccc(-c2nnc(C3CCNCC3)o2)cc1

0
0

----------
Give Population Apoptotic (%) for every item shown.
- Test system: U2OS
- run description: Multiplex assay against U2OS
- Type: toxicity, cell-based
- stated conditions: human, 24 h, 10 µM, compound concentration 10 uM, replicate 2
Units required after the number.

Example entries begin here.
Identify measured Population Apoptotic (%) associated with CC(C)C[C@H](CO)Nc1nc(S[C@@H](C)c2ccccc2)nc2nc(N)sc12 [AZD-8797]
100%

Identify measured Population Apoptotic (%) associated with CN(C)C/C=C/C(=O)Nc1ccc(C(=O)N2CCCC(Nc3ncc(Cl)c(-c4c[nH]c5ccccc45)n3)C2)cc1 (configuration not stated)
97%

Identify measured Population Apoptotic (%) associated with CN1CCN2c3ccccc3Cc3ccccc3C2C1.Cl (configuration not stated) [MIANSERIN HYDROCHLORIDE]
93%

Identify measured Population Apoptotic (%) associated with C=CCN1C[C@H](C(=O)N(CCCN(C)C)C(=O)NCC)C[C@@H]2c3cccc4[nH]cc(c34)C[C@H]21 [CABERGOLINE]
88%

Identify measured Population Apoptotic (%) associated with Cl.Cl.OCCOCCN1CCN(C(c2ccccc2)c2ccc(Cl)cc2)CC1 (configuration not stated) [HYDROXYZINE HYDROCHLORIDE]
61%

Identify measured Population Apoptotic (%) associated with `Nc1nc(-c2ccco2)c2cnn(Cc3ccccc3F)c2n1`
90%

// each listed compound needs a value for Population Apoptotic (%)
1. CCc1nn2c(C)cc(C)nc2c1Cc1ccc(-c2nnc(C3CCNCC3)o2)cc1
2. CN1C[C@H](C(=O)N[C@]2(C)O[C@@]3(O)[C@@H]4CCCN4C(=O)[C@H](Cc4ccccc4)N3C2=O)C[C@@H]2c3cccc4[nH]cc(c34)C[C@H]21.CS(=O)(=O)O [DIHYDROERGOTAMINE MESYLATE]
3. CN(C)C(=O)Cn1cc(-c2ccc(-c3nnc4ccccn34)cc2)cn1
4. CCC(=O)OCC(=O)[C@@]1(OC(=O)CC)[C@@H](C)C[C@H]2[C@@H]3CCC4=CC(=O)C=C[C@]4(C)[C@@]3(Cl)[C@@H](O)C[C@@]21C [BECLOMETHASONE DIPROPIONATE]

71%
92%
87%
64%

// each listed compound needs a value for Population Apoptotic (%)
1. COc1cc2nc(N3CCN(C(=O)c4ccco4)CC3)nc(N)c2cc1OC.Cl [PRAZOSIN HYDROCHLORIDE]
2. C[C@H](NC(=O)CNC(=O)c1cccc(Cl)c1)c1ccccc1
3. COc1cc(OC2CCN(C(C)=O)CC2)ccc1C(=O)N1CCC(N2C(=O)OCc3ccccc32)CC1
4. O=c1nc2[nH]c3ccccc3nc-2c(=O)[nH]1 [ALLOXAZINE]
5. CN1CCN(c2ccc(Nc3c4ccccc4nc4ccccc34)cc2)CC1.Cl.Cl.O

85%
71%
71%
75%
90%

// each listed compound needs a value for Population Apoptotic (%)
1. Cc1ccc(OCC(O)C(C)NC(C)C)c2c1CCC2.Cl (configuration not stated)
2. Cc1cc(=O)n(C)c2cc(N3C(=O)CC[C@H](NS(=O)(=O)CC(C)C)[C@H]3c3ccc(Cl)cc3)ccc12

1. 92%
2. 81%

----------
- Test system: Fibroblast
- run description: Multiplex assay against human fibroblast
- Type: toxicity, cell-based
- stated conditions: 48 h, 1 µM, compound concentration 1 uM, replicate 1
Non-standard residues stand in square brackets, D forms with d. Residues, ends and D or L forms follow the SMILES beside them.
Give Population Mitochondria Different-Phenotype (%) for every item shown.
One number for each entry, in %.

Example entries begin here.
Identify measured Population Mitochondria Different-Phenotype (%) associated with `OCCCNc1cc(-c2ccnc(Nc3cccc(Cl)c3)n2)ccn1`
20

Identify measured Population Mitochondria Different-Phenotype (%) associated with CC(C)C[C@@H]1NC(=O)[C@@H](C(C)C)NC(=O)[C@@H]2CCCN2C(=O)[C@@H](CC(=O)O)NC(=O)[C@@H](Cc2c[nH]c3ccccc23)NC1=O [BQ-123] (cyclo(L[dW][dD]P[dV]))
12

Identify measured Population Mitochondria Different-Phenotype (%) associated with CN1C[C@H](C(=O)N[C@]2(C)O[C@@]3(O)[C@@H]4CCCN4C(=O)[C@H](Cc4ccccc4)N3C2=O)C[C@@H]2c3cccc4[nH]cc(c34)C[C@H]21.CS(=O)(=O)O [DIHYDROERGOTAMINE MESYLATE]
2

More entries:
Identify measured Population Mitochondria Different-Phenotype (%) associated with CN1CCN2c3ccccc3Cc3ccccc3C2C1.Cl (centres undefined) [MIANSERIN HYDROCHLORIDE]
2
